Target: T1, cynomolgus SIRPα expressed on cells (cynomolgus monkey, UniProt A0A2K5VYQ9 31-507)
T1 construct: whole, on cells; also called ExpiCHO-S (cySIRPα)
T1 sequence: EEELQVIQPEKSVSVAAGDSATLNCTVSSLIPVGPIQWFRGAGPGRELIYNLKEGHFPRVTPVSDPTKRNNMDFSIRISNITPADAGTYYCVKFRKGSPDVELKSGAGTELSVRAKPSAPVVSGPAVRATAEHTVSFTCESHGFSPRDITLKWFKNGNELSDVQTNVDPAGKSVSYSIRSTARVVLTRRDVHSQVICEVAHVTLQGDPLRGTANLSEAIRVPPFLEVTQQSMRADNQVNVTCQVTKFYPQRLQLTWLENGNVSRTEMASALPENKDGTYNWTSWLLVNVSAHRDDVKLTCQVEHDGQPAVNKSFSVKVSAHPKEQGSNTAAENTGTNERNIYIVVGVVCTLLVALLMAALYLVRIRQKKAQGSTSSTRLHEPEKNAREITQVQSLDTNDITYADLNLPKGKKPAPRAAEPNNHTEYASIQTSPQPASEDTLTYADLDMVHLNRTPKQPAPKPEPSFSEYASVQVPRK
Assay: flow cytometry, ExpiCHO-S cells
Listing: EC50 of selected binders

binder	readout_unit	EC50
anti-SIRPα antibody 7 (antibody, human IgG1, kappa, L234A L235A, V domains shown, Chimeric: rabbit variable regions on human IgG1 LALA / kappa; also called chimeric antibody 7) VH: RSVEESGGRLVTPGTPLTLTCTVSGFSLSSHGISWVRQAPGKGLEYIGTIGTGVITYFASWAKGRFTGSKTSTTVDLKITSPTTEDTATYFCARGSAWNDPFDPWGPGTLVTVSS VL: ALVMTQTPASVSAAVGGTVTTKCQASQSVYGNNDLAWYQHKPGQPPKLLIYLASTLATGVPSRFSGSGSGTQFTLTITGVQSDDAATYYCLGGGDDEADNVFGGGTEVVVKR	µg/mL	0.07
anti-SIRPα antibody 8 (antibody, human IgG1, kappa, L234A L235A, V domains shown, Rabbit variable regions on human IgG1 LALA / kappa) VH: QSLEESGGRLVTPGTPLTLTCTASGVDLSNYAMGWVRQAPGKGLEWIGIIYAGGSTSYATWAKGRFTISKTSTTMDLKMTSPTTEDTATYFCARHRSDGYDYFHLWGPGTLVTVSL VL: AIDMTQTPASVSEPVGGTVTIKCQASQSISSWLAWYQQKPGQRPKLLIYDASKLASGVPSRFSGSGSGTEFTLTISGVQSDDAAAYYCQQGYAVSYVENIFGGGTEVVVKR	µg/mL	0.15
anti-SIRPα antibody 11 humanized (antibody, human IgG1, kappa, L234A L235A, V domains shown, Humanized, human IgG1 LALA / kappa) VH: EVKVEESGGGLVQPGGSLRLSCAASGFSLSSYVMGWVRQAPGKGLEWVSIISSSGSPYYASWVNGRFTISKTSTTMDLQMNSLRAEDTAVYYCARVGPLGVDYFNIWGQGTTVTVSS VL: DIQMTQSPSSLSASVGDRVTITCQAGQSINSYLAWYQQKPGKVPKLLIYYASTLESGVPSRFSGSGSGTDFTLTISSLQPEDVATYYCQSWHYISRSYAFGQGTKVEIKR	µg/mL	0.32
anti-SIRPα antibody 13 humanized (antibody, human IgG1, V domains shown, Humanized, human IgG1 LALA / kappa) VH: RQLVESGGGLVQPGGSLRLSCTASGFSLSSHGISWVRQAPGKGLEYIGTIGTGVITYFASWAKGRFTGSKTSSTAYMELSSLRSEDTAVYFCARGSAWNDPFDPWGQGTLVTVSS VL: AIQMTQSPSSLSASVGDRVTITCQASQSVYGNNDLAWYQQKPGKAPKLLIYLASTLATGVPSRFSGSGSGTDFTLTISSLQPEDFATYYCLGGGDDEADNVFGGGTKVEIKR	µg/mL	0.44
